The following binders are shown together with reported IC50, inhibition of IFN-γ release, human whole blood, recombinant human IL-18 (7 nM) values.
Biological target: T1, Recombinant human IL-18 (human, UniProt Q14116 37-193)
T1 sequence: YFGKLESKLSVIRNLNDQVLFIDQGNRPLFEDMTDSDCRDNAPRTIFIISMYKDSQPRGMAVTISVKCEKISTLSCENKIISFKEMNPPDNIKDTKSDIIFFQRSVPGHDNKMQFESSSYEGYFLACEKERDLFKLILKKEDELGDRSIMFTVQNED
Assay: cell-based or functional assay
Use nM as the unit, but write only the number.

{"BINDER": "MOR9464_N30Y (antibody, human IgG1, lambda, L234A L235A, V domains shown) VH: EVQLVQSGAEVKKPGSSVKVSCKASGGTFYSYAISWVRQAPGQGLEWMGNIIPMTGQTYYAQKFQGRVTITADESTSTAYMELSSLRSEDTAVYYCARAAYHPLVFDNWGQGTLVTVSS VL: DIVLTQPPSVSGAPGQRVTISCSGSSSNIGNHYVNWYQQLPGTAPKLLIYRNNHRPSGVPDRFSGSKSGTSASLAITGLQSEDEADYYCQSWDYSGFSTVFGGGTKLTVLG", "UNIT_ABBREV": "nM", "READOUT_NUMBER": 12.4}

Now for a further binder.
Input line: IC50, inhibition of IFN-γ release, human whole blood, recombinant human IL-18 (7 nM) for MOR10497 (antibody, human IgG1, lambda, L234A L235A, V domains shown, also called MOR010497) VH: EVQLQESGPGLVKPGETLSLTCTVSGGSISTGSYYWNWIRQAPGKGLEWIGEIQSPGYTFYNPSLKSRVTISVDTSKNQFSLKLSSVTAADTAVYYCARTTRYWMSHILAYGMDYWGQGTLVTVSS VL: DIVLTQPPSVSGAPGQRVTISCSGSSSNIGNHYVSWYQQLPGTAPKLLIYANTKRPSGVPDRFSGSKSGTSASLAITGLQSEDEADYYCSSYDGSQSIVFGGGTKLTVLG ?
Output line: 16.1

Recorded values, source patent US20140112915A1.
